pIC50: −log10 of the molar value.
Quick record: pIC50, PAK6 (Homo sapiens, UniProt Q9NQU5).

Tested system PAK6 (Homo sapiens, UniProt Q9NQU5); pIC50 recorded for CC(C)(C)OC(=O)Nc1nc(-c2ccncc2)sc1C#CCN1CCOCC1 was 4.00 to 5.00

###

Reported values of pIC50 for individual entries
- assayed.target: MAPK14 (Homo sapiens, UniProt Q16539)
- Sequence (Q16539 whole entry, species assumed): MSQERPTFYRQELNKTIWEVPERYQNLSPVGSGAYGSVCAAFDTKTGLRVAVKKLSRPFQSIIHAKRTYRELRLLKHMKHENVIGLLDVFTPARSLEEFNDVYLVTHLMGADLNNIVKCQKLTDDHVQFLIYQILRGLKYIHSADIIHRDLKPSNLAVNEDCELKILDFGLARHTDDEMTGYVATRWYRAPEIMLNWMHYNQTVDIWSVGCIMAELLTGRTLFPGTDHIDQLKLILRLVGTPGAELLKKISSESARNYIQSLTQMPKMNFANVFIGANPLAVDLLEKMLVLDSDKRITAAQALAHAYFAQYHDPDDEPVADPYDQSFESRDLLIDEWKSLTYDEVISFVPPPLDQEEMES
pIC50: −log10 of the molar value.

Tested system MAPK14 (Homo sapiens, UniProt Q16539); pIC50 recorded for c1ccc(Cc2c[nH]c3ncsc23)cc1 [Compound A7, 6-benzyl-4H-pyrrolo[2,3-d]thiazole] was 5.00 to 6.00

Tested system MAPK14 (Homo sapiens, UniProt Q16539); pIC50 recorded for CC(C)(C)OC(=O)Nc1ncsc1C#CCN1C(=O)c2ccccc2C1=O was 4.00 to 5.00

###

- assayed.target: INSR (Homo sapiens, UniProt P06213)
- Sequence (P06213 28-1382, species assumed): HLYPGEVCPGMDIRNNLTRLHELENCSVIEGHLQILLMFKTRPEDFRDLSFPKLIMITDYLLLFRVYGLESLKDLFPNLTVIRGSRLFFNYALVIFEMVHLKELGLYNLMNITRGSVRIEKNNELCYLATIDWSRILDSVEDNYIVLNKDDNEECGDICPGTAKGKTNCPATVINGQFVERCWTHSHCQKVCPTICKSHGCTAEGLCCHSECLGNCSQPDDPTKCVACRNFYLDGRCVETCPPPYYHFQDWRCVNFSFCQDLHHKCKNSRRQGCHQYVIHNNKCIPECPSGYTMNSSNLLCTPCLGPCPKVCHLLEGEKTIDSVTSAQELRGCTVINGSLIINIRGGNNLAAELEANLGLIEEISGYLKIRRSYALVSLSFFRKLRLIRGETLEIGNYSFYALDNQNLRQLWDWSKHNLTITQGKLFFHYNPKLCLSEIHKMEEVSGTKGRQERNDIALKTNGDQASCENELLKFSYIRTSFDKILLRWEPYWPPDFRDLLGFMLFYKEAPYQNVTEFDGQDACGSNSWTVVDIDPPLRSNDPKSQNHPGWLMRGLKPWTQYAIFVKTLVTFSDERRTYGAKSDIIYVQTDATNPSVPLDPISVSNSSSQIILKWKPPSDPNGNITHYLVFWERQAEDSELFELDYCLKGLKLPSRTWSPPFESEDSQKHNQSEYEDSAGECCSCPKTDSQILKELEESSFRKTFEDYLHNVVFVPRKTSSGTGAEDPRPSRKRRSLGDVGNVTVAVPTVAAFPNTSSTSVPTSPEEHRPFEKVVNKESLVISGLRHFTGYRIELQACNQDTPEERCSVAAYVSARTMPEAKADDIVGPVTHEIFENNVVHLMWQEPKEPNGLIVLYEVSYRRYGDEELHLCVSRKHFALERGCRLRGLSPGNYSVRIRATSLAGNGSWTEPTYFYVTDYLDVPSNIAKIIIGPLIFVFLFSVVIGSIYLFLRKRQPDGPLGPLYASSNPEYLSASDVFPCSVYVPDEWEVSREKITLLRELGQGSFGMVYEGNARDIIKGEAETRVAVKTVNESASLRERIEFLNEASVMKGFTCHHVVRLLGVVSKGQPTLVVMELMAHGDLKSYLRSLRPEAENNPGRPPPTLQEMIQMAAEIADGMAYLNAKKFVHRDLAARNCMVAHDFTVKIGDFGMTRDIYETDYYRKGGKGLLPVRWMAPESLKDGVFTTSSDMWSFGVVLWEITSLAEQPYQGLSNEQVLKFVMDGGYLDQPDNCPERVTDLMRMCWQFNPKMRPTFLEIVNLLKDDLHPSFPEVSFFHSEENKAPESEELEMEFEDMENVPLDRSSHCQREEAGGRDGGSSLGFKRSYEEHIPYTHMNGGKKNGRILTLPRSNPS
assay.metric: IC50

Here's what some known entries look like.
molecule	test.result
Nc1ncsc1C#Cc1cccc(O)c1	10 to 100 µM
CC(C)(C)OC(=O)Nc1ncsc1C#CCN1C(=O)c2ccccc2C1=O	1 to 10 µM
c1ccc(Cc2c[nH]c3ncsc23)cc1 [Compound A7, 6-benzyl-4H-pyrrolo[2,3-d]thiazole]	> 1 µM
CC(C)(C)OC(=O)Nc1nc(-c2ccncc2)sc1C#CCN1CCOCC1	> 1 µM

Continue with the molecule presented below.
The recorded IC50 for Nc1ncsc1C#Cc1cnc2[nH]ccc2c1 is 10 to 100 µM

###

Reported values of IC50 for individual entries
Protein target, amino acids: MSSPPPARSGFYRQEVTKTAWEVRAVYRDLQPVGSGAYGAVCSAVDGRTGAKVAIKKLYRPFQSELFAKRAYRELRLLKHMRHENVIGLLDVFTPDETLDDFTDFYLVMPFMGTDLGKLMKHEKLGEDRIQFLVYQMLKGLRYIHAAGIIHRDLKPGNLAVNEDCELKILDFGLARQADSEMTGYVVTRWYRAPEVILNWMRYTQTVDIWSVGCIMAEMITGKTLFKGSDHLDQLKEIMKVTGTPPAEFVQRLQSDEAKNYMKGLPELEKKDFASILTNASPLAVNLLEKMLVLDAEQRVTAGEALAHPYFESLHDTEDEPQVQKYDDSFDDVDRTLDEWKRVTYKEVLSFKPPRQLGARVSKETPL

Here's what some known entries look like.
compound	IC50
c1ccc(Cc2c[nH]c3ncsc23)cc1 [Compound A7, 6-benzyl-4H-pyrrolo[2,3-d]thiazole]	> 1 µM
CC(C)(C)OC(=O)Nc1nc(-c2ccncc2)sc1C#CCN1CCOCC1 [Compound A25]	10 to 100 µM
Nc1ncsc1C#Cc1cnc2[nH]ccc2c1 [Compound A22]	1 to 10 µM
CC(C)(C)OC(=O)Nc1ncsc1C#CCN1C(=O)c2ccccc2C1=O [Compound A26]	10 to 100 µM

Continue with the compound presented below.
The recorded IC50 for Nc1ncsc1C#Cc1cccc(O)c1 [Compound A27, 3-(4-aminothiazol-5-ylethynyl)phenol] is 1 to 10 µM

###

- assayed.target: FGFR1 (Homo sapiens, UniProt P11362)
- Sequence (P11362 22-822, species assumed): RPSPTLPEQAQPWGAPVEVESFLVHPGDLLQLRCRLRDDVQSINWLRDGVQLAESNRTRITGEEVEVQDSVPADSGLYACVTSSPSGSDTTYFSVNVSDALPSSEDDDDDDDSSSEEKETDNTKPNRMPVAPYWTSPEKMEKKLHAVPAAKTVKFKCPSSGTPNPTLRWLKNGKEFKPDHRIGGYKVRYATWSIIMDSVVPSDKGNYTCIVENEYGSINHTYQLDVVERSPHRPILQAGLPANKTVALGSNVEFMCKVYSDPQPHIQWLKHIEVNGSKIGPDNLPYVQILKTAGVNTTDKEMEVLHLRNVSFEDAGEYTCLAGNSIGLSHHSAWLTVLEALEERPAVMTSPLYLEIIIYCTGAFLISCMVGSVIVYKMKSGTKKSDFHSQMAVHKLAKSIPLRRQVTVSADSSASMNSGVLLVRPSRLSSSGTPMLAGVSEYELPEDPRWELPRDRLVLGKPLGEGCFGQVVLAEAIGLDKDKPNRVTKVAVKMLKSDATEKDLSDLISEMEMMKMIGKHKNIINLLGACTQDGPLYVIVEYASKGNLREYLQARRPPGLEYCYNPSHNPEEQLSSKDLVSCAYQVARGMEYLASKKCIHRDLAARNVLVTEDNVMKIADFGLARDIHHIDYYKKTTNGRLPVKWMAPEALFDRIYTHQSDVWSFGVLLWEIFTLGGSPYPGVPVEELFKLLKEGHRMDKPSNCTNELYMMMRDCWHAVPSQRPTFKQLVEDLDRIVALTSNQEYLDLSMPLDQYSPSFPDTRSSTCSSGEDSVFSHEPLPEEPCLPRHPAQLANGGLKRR
Reported values of IC50 for individual entries

Here's what some known entries look like.
molecule	assay.metric	test.result
Nc1ncsc1C#Cc1cnc2[nH]ccc2c1	IC50	1000 to 10000 nM
CC(C)(C)OC(=O)Nc1nc(-c2ccncc2)sc1C#CCN1CCOCC1	IC50	> 1000 nM

The recorded IC50 for CC(C)(C)OC(=O)Nc1ncsc1C#CCN1C(=O)c2ccccc2C1=O is 1000 to 10000 nM

The recorded IC50 for c1ccc(Cc2c[nH]c3ncsc23)cc1 [Compound A7, 6-benzyl-4H-pyrrolo[2,3-d]thiazole] is 1000 to 10000 nM

The recorded IC50 for Nc1ncsc1C#Cc1cccc(O)c1 is > 1000 nM

###

pIC50: −log10 of the molar value.
Quick record: pIC50, MET (Homo sapiens, UniProt P08581).

Here's what some known entries look like.
compound	pIC50
CC(C)(C)OC(=O)Nc1ncsc1C#CCN1C(=O)c2ccccc2C1=O	< 6.00
Nc1ncsc1C#Cc1cccc(O)c1	4.00 to 5.00
CC(C)(C)OC(=O)Nc1nc(-c2ccncc2)sc1C#CCN1CCOCC1	< 6.00
Nc1ncsc1C#Cc1cnc2[nH]ccc2c1	< 6.00

Tested system MET (Homo sapiens, UniProt P08581); pIC50 recorded for c1ccc(Cc2c[nH]c3ncsc23)cc1 [Compound A7, 6-benzyl-4H-pyrrolo[2,3-d]thiazole] was 5.00 to 6.00

###

Target chain: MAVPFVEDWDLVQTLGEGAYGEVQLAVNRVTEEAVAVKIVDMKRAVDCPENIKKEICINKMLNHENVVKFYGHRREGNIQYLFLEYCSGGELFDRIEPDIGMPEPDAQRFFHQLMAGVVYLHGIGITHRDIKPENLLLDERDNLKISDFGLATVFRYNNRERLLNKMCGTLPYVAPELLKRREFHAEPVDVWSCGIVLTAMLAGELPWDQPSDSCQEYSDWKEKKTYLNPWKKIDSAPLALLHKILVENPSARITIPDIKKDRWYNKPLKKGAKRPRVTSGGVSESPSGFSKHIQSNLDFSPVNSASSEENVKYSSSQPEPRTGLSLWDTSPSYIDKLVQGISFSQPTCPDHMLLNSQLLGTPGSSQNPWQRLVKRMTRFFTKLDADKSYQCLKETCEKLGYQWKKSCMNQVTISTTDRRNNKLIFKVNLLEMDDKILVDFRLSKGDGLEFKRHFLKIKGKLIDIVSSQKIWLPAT
pIC50: −log10 of the molar value.
Reported values of pIC50 for individual entries

compound	test.result
CC(C)(C)OC(=O)Nc1nc(-c2ccncc2)sc1C#CCN1CCOCC1 [Compound A25]	4.00 to 5.00

The recorded pIC50 for c1ccc(Cc2c[nH]c3ncsc23)cc1 [Compound A7, 6-benzyl-4H-pyrrolo[2,3-d]thiazole] is < 6.00

The recorded pIC50 for Nc1ncsc1C#Cc1cnc2[nH]ccc2c1 [Compound A22] is 6.00 to 8.00

The recorded pIC50 for CC(C)(C)OC(=O)Nc1ncsc1C#CCN1C(=O)c2ccccc2C1=O [Compound A26] is 4.00 to 5.00

The recorded pIC50 for Nc1ncsc1C#Cc1cccc(O)c1 [Compound A27, 3-(4-aminothiazol-5-ylethynyl)phenol] is 4.00 to 5.00

###

Reported values of IC50 for individual entries
Target sequence: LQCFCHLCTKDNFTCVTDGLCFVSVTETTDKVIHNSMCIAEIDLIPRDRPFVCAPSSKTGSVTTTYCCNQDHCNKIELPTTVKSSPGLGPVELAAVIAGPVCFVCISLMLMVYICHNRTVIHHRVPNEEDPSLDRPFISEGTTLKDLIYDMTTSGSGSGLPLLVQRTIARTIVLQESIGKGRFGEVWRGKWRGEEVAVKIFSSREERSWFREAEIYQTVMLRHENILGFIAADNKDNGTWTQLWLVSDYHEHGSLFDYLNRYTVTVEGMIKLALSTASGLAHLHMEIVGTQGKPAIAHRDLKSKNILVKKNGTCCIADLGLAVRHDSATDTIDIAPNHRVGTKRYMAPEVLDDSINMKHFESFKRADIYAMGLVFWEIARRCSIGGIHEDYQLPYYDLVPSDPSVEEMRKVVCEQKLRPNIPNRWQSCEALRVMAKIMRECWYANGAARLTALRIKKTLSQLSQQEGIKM

Here's what some known entries look like.
compound	IC50
Nc1ncsc1C#Cc1cnc2[nH]ccc2c1	10 to 100 µM
c1ccc(Cc2c[nH]c3ncsc23)cc1 [Compound A7, 6-benzyl-4H-pyrrolo[2,3-d]thiazole]	10 to 100 µM
CC(C)(C)OC(=O)Nc1nc(-c2ccncc2)sc1C#CCN1CCOCC1	1 to 10 µM
Nc1ncsc1C#Cc1cccc(O)c1	1 to 10 µM

Continue with the compound presented below.
The recorded IC50 for CC(C)(C)OC(=O)Nc1ncsc1C#CCN1C(=O)c2ccccc2C1=O is 10 to 100 µM

###

Sequence of the target: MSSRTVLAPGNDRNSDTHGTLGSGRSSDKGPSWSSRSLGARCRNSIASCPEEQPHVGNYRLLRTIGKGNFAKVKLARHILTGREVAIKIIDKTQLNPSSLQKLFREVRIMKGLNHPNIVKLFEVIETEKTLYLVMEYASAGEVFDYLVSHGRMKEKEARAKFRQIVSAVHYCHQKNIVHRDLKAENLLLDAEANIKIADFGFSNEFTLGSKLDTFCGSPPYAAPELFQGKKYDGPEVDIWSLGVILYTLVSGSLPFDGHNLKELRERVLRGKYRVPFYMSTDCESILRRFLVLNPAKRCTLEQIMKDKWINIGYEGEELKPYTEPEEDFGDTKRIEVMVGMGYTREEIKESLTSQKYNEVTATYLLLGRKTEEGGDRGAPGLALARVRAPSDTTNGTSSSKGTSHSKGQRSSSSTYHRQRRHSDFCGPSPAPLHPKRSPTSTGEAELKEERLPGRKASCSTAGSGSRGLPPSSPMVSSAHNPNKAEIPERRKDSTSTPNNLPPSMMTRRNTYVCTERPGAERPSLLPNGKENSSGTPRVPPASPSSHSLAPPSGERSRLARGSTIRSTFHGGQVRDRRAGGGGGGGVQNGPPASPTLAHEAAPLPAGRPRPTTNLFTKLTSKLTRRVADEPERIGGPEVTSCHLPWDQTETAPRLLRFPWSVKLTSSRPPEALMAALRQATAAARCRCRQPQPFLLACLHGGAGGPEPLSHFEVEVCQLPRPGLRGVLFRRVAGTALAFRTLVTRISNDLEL
assay.metric: IC50

The recorded IC50 for c1ccc(Cc2c[nH]c3ncsc23)cc1 [Compound A7, 6-benzyl-4H-pyrrolo[2,3-d]thiazole] is > 1 µM

The recorded IC50 for CC(C)(C)OC(=O)Nc1nc(-c2ccncc2)sc1C#CCN1CCOCC1 [Compound A25] is 10 to 100 µM

The recorded IC50 for CC(C)(C)OC(=O)Nc1ncsc1C#CCN1C(=O)c2ccccc2C1=O [Compound A26] is > 1 µM

The recorded IC50 for Nc1ncsc1C#Cc1cnc2[nH]ccc2c1 [Compound A22] is 10 to 100 µM

The recorded IC50 for Nc1ncsc1C#Cc1cccc(O)c1 [Compound A27, 3-(4-aminothiazol-5-ylethynyl)phenol] is 1 to 10 µM
